Measured pIC50 accompanies every entry in the list below.
TARGET_UNDER_TEST: NK-1 receptor (Homo sapiens)
Construct: In this assay an aliquot of IM9 cells; endogenous in cells
TEST_DETAILS: NK-1 Receptor Binding Assay (125I-labeled substance P, IM9 cells)
ASSAY_CONTEXT: inhibition of 125I-substance P binding to IM9 cells, 45 minutes at 4° C.; certain values may be average of more than one experiment
pIC50: −log10 of the molar value.
EXPERIMENTAL_READOUT: pIC50

1) O=C(CN1CC(=O)N(Cc2ccccc2)CC1=O)NC(Cc1c[nH]c2ccccc12)C(=O)NCc1ccccc1Cl (stereo not shown) : 7.39
2) O=C(CN1CCN(c2ccccc2)CC1)NC(Cc1c[nH]c2ccccc12)C(=O)NCc1ccc(Cl)cc1 (stereo not shown) : 6.68
3) O=C(CN1CCN(c2ccccc2)CC1)NC(Cc1c[nH]c2ccccc12)C(=O)NCc1ccccc1 (stereo not shown) : 6.85
4) CN1CC(=O)N(CC(=O)NC(Cc2c[nH]c3ccccc23)C(=O)NCc2ccccc2Cl)CC1=O (stereo not shown) : 7.02

---

TARGET_UNDER_TEST: NK-1 receptor (Homo sapiens)
Construct: In this assay an aliquot of IM9 cells; endogenous in cells
TEST_DETAILS: NK-1 Receptor Binding Assay (125I-labeled substance P, IM9 cells)
ASSAY_CONTEXT: inhibition of 125I-substance P binding to IM9 cells, 45 minutes at 4° C.; certain values may be average of more than one experiment
EXPERIMENTAL_READOUT: IC50

1) COc1ccccc1CNC(=O)C(Cc1c[nH]c2ccccc12)NC(=O)CN1CCN(c2ccccc2)CC1 (centres unmarked) : 67 nM
2) O=C(CN1CCCCC1)NC(Cc1c[nH]c2ccccc12)C(=O)NCc1ccccc1Cl (centres unmarked) : 730 nM
3) CN1CCN(CC(=O)NC(Cc2c[nH]c3ccccc23)C(=O)NCc2ccccc2Cl)CC1 (centres unmarked) : 78 nM
4) CN(Cc1ccccc1)C(=O)C(Cc1c[nH]c2ccccc12)NC(=O)CN1CCN(c2ccccc2)CC1 (centres unmarked) : 180 nM
5) O=C(CN1CCN(c2ccccc2)CC1)NC(Cc1c[nH]c2ccccc12)C(=O)NCc1ccccc1Cl (centres unmarked) : 30 nM

---

IC50 values for the molecules below.
TARGET_UNDER_TEST: NK-1 receptor (Homo sapiens, UniProt P25103)
Construct: In this assay an aliquot of IM9 cells; endogenous in cells; host or cells: IM9 cells
Sequence (P25103 whole entry): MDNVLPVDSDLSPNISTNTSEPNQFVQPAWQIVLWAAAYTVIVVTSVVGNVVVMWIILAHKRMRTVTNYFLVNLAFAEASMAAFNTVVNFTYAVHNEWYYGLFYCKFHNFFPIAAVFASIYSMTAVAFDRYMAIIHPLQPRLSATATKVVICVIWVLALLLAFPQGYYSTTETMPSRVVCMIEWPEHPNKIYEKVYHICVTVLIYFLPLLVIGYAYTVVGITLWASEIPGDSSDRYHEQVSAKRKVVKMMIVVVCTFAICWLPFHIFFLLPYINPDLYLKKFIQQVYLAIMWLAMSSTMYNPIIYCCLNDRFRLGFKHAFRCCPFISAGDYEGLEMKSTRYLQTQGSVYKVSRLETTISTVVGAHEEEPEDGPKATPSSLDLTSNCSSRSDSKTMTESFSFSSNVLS
TEST_DETAILS: NK-1 Receptor Binding Assay (125I-labeled substance P, IM9 cells)
ASSAY_CONTEXT: inhibition of 125I-substance P binding to IM9 cells, 45 minutes at 4° C.; certain values may be average of more than one experiment
Structures can show the parent of a compound that is named as a salt.
EXPERIMENTAL_READOUT: IC50

1) O=C(CN1CCC(c2ccccc2)CC1)NC(Cc1c[nH]c2ccccc12)C(=O)NCc1ccccc1Cl (stereo not shown) : 140 nM
2) O=C(CN1CCN(Cc2ccccc2)CC1)NC(Cc1c[nH]c2ccccc12)C(=O)NCc1ccccc1Cl (stereo not shown) [Example 13, dihydrochloride salt] : 34 nM
3) O=C1CN(CC(=O)NC(Cc2c[nH]c3ccccc23)C(=O)NCc2ccccc2Cl)C(=O)CN1 (stereo not shown) : 230 nM
4) O=C(CN1CCC(Cc2ccccc2)CC1)NC(Cc1c[nH]c2ccccc12)C(=O)NCc1ccccc1Cl (stereo not shown) [Example 1, hydrochloride salt] : 290 nM

meta.source: patent US5565568A
